Taken from the supplement of paper PMC9925115.

Consider the following compounds; for each one, report its cell viability z-score within plate.
Test system: FLX1
Protocol Description: cell viability z-score within plate (CellTiter-Glo), mean of 3 biological replicates; higher = higher viability relative to plate (less growth inhibition)
Assay Conditions: 2 µM; time (hr): 120
Answers are plain numbers.

Examples with answers:
>>> measured_number("OCCn1cc(-c2ccc3c(c2)CC/C3=N\\O)c(-c2ccncc2)n1")
0.788
>>> measured_number("CCS(=O)(=O)Nc1ccc2c(c1)/C(=C(/Nc1ccc(CN3CCCCC3)cc1)c1ccccc1)C(=O)N2")
-2.01
>>> measured_number("O=C(NOCC1CC1)c1ccc(F)c(F)c1Nc1ccc(I)cc1Cl")
0.606
>>> measured_number("Cc1cc(Nc2ncc(Cl)c(Nc3ccccc3S(=O)(=O)C(C)C)n2)c(OC(C)C)cc1C1CCNCC1")
0.337
>>> measured_number("COC(=O)Nc1ccc(-c2nc(N3CCOCC3)c3cnn(C4CCN(C(=O)OC)CC4)c3n2)cc1")
0.411
>>> measured_number("COc1ccc(-c2nc(N3CCOCC3)c3sc(CN(C)c4ncc(C(=O)NO)cn4)cc3n2)cn1")
-0.258
>>> measured_number("CS(=O)(=O)CCNCc1ccc(-c2ccc3ncnc(Nc4ccc(OCc5cccc(F)c5)c(Cl)c4)c3c2)o1")
0.823

Would you kindly look at the next entry?
Record request: cell viability z-score within plate value, item `COc1cc2c(Oc3ccc4[nH]c(C)cc4c3F)ncnc2cc1OCCCN1CCCC1`
0.6
